Recorded values, source patent US20250320496A1.

Each item that follows carries a reported ABCB11 mRNA FC (5 μM ASO vs. UNT).
Tested on: human ABCB11 mRNA
RUN DESCRIPTION: ASO treatment of primary human hepatocytes (PHH), ABCB11 mRNA by RT-qPCR normalized to B2M
Type: cell-based
ASSAY CONTEXT: primary human hepatocytes, 5 μM ASO, normalized to untreated PHHs (UNT)
Strand notation (5' to 3'): a small letter for the sugar, then the base; units joined by * are phosphorothioate-linked, units joined directly phosphodiester-linked; [ ] holds rarer units or linkages, { } end groups; capitals alone tell only the bases. e = 2'-O-(2-methoxyethyl) (MOE); l = locked nucleic acid (LNA); [5mC] = 5-methylcytosine; d = 2'-deoxy (DNA)
MEASUREMENT KIND: ABCB11 mRNA FC (5 μM ASO vs. UNT) (fold change)

INSERT INTO measurements (substance, tgt, measurement_kind, u, result_value) VALUES
  ('CO-7028 (antisense eA*e[5mC]*e[5mC]*eG*eA*e[5mC]*eA*eG*eT*eG*eA*eG*e[5mC]*eT*eT*eA*eT*e[5mC]*eT*eG)', 'human ABCB11 mRNA', 'ABCB11 mRNA FC (5 μM ASO vs. UNT)', 'fold change', 1.49),
  ('CO-7209 (eT*eT*eT*eG*eG*d[5mC]*dG*eT*dT*dA*eT*dT*dA*eA*dT*dT*e[5mC]*dT*dA*e[5mC]*eA*eG*eA*eG; antisense)', 'human ABCB11 mRNA', 'ABCB11 mRNA FC (5 μM ASO vs. UNT)', 'fold change', 1.262),
  ('CO-7196 (eG*eG*eT*eG*eG*eA*eG*e[5mC]*eA*eA*eA*e[5mC]*eT*eA*eG*eG*e[5mC]*eA*e[5mC]*eT*eG*eA; antisense)', 'human ABCB11 mRNA', 'ABCB11 mRNA FC (5 μM ASO vs. UNT)', 'fold change', 1.33),
  ('CO-4051 (antisense eG*eA*e[5mC]*eT*eT*eT*eT*eG*eA*eG*e[5mC]*eA*eA*eG*eG*e[5mC]*eT*eG*eT*eT)', 'human ABCB11 mRNA', 'ABCB11 mRNA FC (5 μM ASO vs. UNT)', 'fold change', 0.908),
  ('CO-4029 (antisense eA*eT*eA*e[5mC]*eT*eT*eG*eT*e[5mC]*eT*e[5mC]*eT*eG*e[5mC]eA*eA*eA*eT*e[5mC]*e[5mC])', 'human ABCB11 mRNA', 'ABCB11 mRNA FC (5 μM ASO vs. UNT)', 'fold change', 0.908),
  ('CO-7110 (eT*eA*e[5mC]*eA*eT*eT*eT*dA*dG*dA*dG*dA*d[5mC]*dA*dA*dA*dG*eA*eA*eT*e[5mC]*eG*e[5mC]*eT; antisense)', 'human ABCB11 mRNA', 'ABCB11 mRNA FC (5 μM ASO vs. UNT)', 'fold change', 1.035),
  ('CO-7095 (eA*e[5mC]*e[5mC]*l[5mC]*e[5mC]*e[5mC]*e[5mC]*lT*e[5mC]*eA*e[5mC]*l[5mC]*eT*eT*eG*lG*eT*eT*e[5mC]*e[5mC]; antisense)', 'human ABCB11 mRNA', 'ABCB11 mRNA FC (5 μM ASO vs. UNT)', 'fold change', 0.925),
  ('CO-7182: derivative ASO with additional chemical modifications based on parent ASO CO-4529 (antisense eG*eT*eG*lG*eA*eG*e[5mC]*lA*eA*eA*e[5mC]*lT*eA*eG*eG*l[5mC]*eA*e[5mC]*eT*eG)', 'human ABCB11 mRNA', 'ABCB11 mRNA FC (5 μM ASO vs. UNT)', 'fold change', 1.572),
  ('CO-4512 (antisense eA*eA*e[5mC]*eG*eGeAeAeG*eG*eGeTeT*eAeA*eA*eG*eG*eT*eA*eT)', 'human ABCB11 mRNA', 'ABCB11 mRNA FC (5 μM ASO vs. UNT)', 'fold change', 1.087),
  ('CO-4049 (antisense eG*eT*e[5mC]*eT*e[5mC]*e[5mC]*eA*e[5mC]*eA*eA*eA*eA*e[5mC]*eT*e[5mC]*eT*eA*eT*eA*eG)', 'human ABCB11 mRNA', 'ABCB11 mRNA FC (5 μM ASO vs. UNT)', 'fold change', 0.889),
  ('CO-7152 (antisense eA*e[5mC]*e[5mC]*eT*eT*eA*eG*dG*dA*dG*dG*dA*dT*dT*dA*dT*dT*eT*eA*eA*e[5mC]*e[5mC]*eT*e[5mC])', 'human ABCB11 mRNA', 'ABCB11 mRNA FC (5 μM ASO vs. UNT)', 'fold change', 1.28),
  ('CO-7097 (eA*e[5mC]*e[5mC]*e[5mC]*l[5mC]*e[5mC]*e[5mC]*eT*e[5mC]*lA*e[5mC]*e[5mC]*eT*eT*lG*eG*eT*eT*e[5mC]*e[5mC]; antisense)', 'human ABCB11 mRNA', 'ABCB11 mRNA FC (5 μM ASO vs. UNT)', 'fold change', 1.028),
  ('CO-4495 (antisense eT*eG*eG*eT*eA*eT*e[5mC]*e[5mC]*eA*eT*eT*e[5mC]*eA*e[5mC]*eA*eA*eG*eG*eT*eG)', 'human ABCB11 mRNA', 'ABCB11 mRNA FC (5 μM ASO vs. UNT)', 'fold change', 1.07),
  ('CO-7195 (eG*eG*eT*eG*eG*eA*dG*d[5mC]*dA*dA*dA*d[5mC]*dT*dA*dG*dG*e[5mC]*eA*e[5mC]*eT*eG*eA; antisense)', 'human ABCB11 mRNA', 'ABCB11 mRNA FC (5 μM ASO vs. UNT)', 'fold change', 1.443),
  ('CO-4525 (antisense eA*e[5mC]*e[5mC]*e[5mC]*eA*e[5mC]*eA*eT*eA*eG*eT*eT*eG*eT*eA*e[5mC]*eT*e[5mC]*eT*e[5mC])', 'human ABCB11 mRNA', 'ABCB11 mRNA FC (5 μM ASO vs. UNT)', 'fold change', 0.995),
  ('CO-6998 (antisense eG*eT*eG*lA*eG*lG*e[5mC]*lA*eT*l[5mC]*eA*lGeG*lT*eA*lA*eG*lT*eT*e[5mC])', 'human ABCB11 mRNA', 'ABCB11 mRNA FC (5 μM ASO vs. UNT)', 'fold change', 1.246),
  ('CO-4034 (antisense e[5mC]*eG*eA*eG*eG*eT*eT*eG*eG*eA*eA*eA*eA*eG*eG*eT*eT*eG*eT*eG)', 'human ABCB11 mRNA', 'ABCB11 mRNA FC (5 μM ASO vs. UNT)', 'fold change', 0.792),
  ('CO-7148: derivative ASO with additional chemical modifications based on parent ASO CO-4517 (antisense e[5mC]*e[5mC]*eT*eT*eA*eG*dG*dA*dG*dG*dA*dT*dT*dA*dT*dT*eT*eA*eA*e[5mC]*e[5mC]*eT)', 'human ABCB11 mRNA', 'ABCB11 mRNA FC (5 μM ASO vs. UNT)', 'fold change', 1.527),
  ('CO-4511 (antisense eG*eT*eG*eG*eG*eA*eG*eT*eG*eG*eT*eA*eA*eG*eA*eT*eT*eA*eG*e[5mC])', 'human ABCB11 mRNA', 'ABCB11 mRNA FC (5 μM ASO vs. UNT)', 'fold change', 1.182),
  ('CO-6973 (antisense eA*eA*eA*eA*eA*eT*eG*eGeGeT*eGeT*eG*eG*eA*eT*eG*eT*eA*eG)', 'human ABCB11 mRNA', 'ABCB11 mRNA FC (5 μM ASO vs. UNT)', 'fold change', 1.325),
  ('CO-7108 (eA*e[5mC]*eA*eT*eT*dT*dA*dG*eA*dG*dA*d[5mC]*dA*eA*dA*dG*dA*eA*eT*e[5mC]*eG*e[5mC]; antisense)', 'human ABCB11 mRNA', 'ABCB11 mRNA FC (5 μM ASO vs. UNT)', 'fold change', 1.101),
  ('CO-4053 (antisense eG*eA*eG*e[5mC]*eT*eT*e[5mC]*eA*eT*e[5mC]*eT*eG*eG*eT*eG*eT*eG*eT*e[5mC]*e[5mC])', 'human ABCB11 mRNA', 'ABCB11 mRNA FC (5 μM ASO vs. UNT)', 'fold change', 1.218),
  ('CO-7161 (antisense eG*eA*eT*eG*eT*eG*eG*eA*eG*eG*eT*eG*eG*eA*eG*e[5mC]*eA*eA*eA*e[5mC])', 'human ABCB11 mRNA', 'ABCB11 mRNA FC (5 μM ASO vs. UNT)', 'fold change', 1.324);
